Tested on: VCaP cells
Assay: Inhibition of VCaP cell proliferation (WST-8)
Type: cell-based
Conditions: Homo sapiens, 168 hours
Protocol: On the first day of the experiment, VCaP cells were seeded at a density of 15,000 cells/well in a 96-well plate using DMEM medium containing 10% fetal bovine serum, with 100µL of cell suspension per well, and cultured overnight in a cell incubator at 37°C and 5% CO2. […] The absorbance at 450nm was measured using a microplate reader (TECAN, F50).
assay-endpoint: IC50 (µM)
Unit µM implied. Number only.

[in] For the molecule COc1cc2c(cc1C(=O)N[C@H]1CCC(=O)NC1=O)OCC21CCN(CC2CCN(c3ccc(N4CCC5(CC4)C[C@H](C)N(c4ccc(C#N)c(Cl)c4)C5)cc3)CC2)CC1 , give its reported IC50.
[out] 0.051

[in] Supply measured IC50 of C[C@H]1CC2(CCN(c3ccc(C(=O)N4CCC(CN5CCC6(CC5)Cc5ccc(NC7CCC(=O)NC7=O)cc5O6)CC4)cc3)CC2)CN1c1ccc(C#N)c(Cl)c1 (stereo partly drawn) in your reply.
[out] 0.0015

[in] Answer with reported IC50 of C[C@H]1CC2(CCN(c3ccc(C(=O)N4CCC(CN5CCN6c7cc(F)c(C(=O)N[C@H]8CCC(=O)NC8=O)cc7OC[C@H]6C5)CC4)cc3)CC2)CN1c1ccc(C#N)c(Cl)c1
[out] 0.94

---

Target: ERα (Homo sapiens)
Sequence (P03372 whole entry): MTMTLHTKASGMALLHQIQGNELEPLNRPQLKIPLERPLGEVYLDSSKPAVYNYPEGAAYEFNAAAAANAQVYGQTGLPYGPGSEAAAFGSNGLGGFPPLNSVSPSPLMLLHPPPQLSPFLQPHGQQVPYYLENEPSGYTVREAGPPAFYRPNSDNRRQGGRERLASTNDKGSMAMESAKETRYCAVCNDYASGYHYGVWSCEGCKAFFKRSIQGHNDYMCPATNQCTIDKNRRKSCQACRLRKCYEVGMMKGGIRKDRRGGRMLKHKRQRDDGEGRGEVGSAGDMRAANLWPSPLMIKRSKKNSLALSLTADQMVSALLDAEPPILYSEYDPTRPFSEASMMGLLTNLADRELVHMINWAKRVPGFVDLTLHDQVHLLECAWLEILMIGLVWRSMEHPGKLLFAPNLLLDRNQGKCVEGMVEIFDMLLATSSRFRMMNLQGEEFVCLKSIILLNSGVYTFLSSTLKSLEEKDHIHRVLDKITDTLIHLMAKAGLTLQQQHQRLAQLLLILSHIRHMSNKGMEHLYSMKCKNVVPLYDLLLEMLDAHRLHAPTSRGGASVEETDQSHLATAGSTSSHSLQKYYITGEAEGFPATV
Test: ERα degradation in MCF-7 cells (Western blot)
Format: cell-based
Set-up: host or cells: MCF-7
Conditions: 10nM, 4 hours
assay-endpoint: Degradation rate of ERα in MCF-7 cells (%)
// return numeric value only (unit: %, not printed)

[in] Indicate the recorded Degradation rate of ERα in MCF-7 cells (%) value for this molecule: Cn1c(=O)n(C2CCC(=O)NC2=O)c2cc3c(cc21)C1(CCN(C2CC4(CCN(c5ccc([C@@H]6c7ccc(O)cc7CC[C@@H]6c6ccccc6)cc5)CC4)C2)CC1)CO3 (some centres unmarked)
[out] -11

[in] Give me measured Degradation rate of ERα in MCF-7 cells (%), please, for this molecule: Cn1c(=O)n(C2CCC(=O)NC2=O)c2ccc3c(c21)OCC31CCN(C2CC3(C2)CN(c2ccc([C@@H]4c5ccc(O)cc5CC[C@@H]4c4ccccc4)cc2)C3)CC1 (some centres unmarked)
[out] 18

[in] Annotate the molecule O=C1CCC(Nc2ccc3c(c2)COC[C@H]2CN(C[C@H]4CC[C@@H](OC5CCN(c6ccc([C@@H]7c8ccc(O)cc8CC[C@@H]7c7ccccc7)cc6)CC5)CC4)CCN32)C(=O)N1 (some centres unmarked) with its measured Degradation rate of ERα in MCF-7 cells (%).
[out] 17

[in] Could you please provide reported Degradation rate of ERα in MCF-7 cells (%) for Cn1c(=O)n(C2CCC(=O)NC2=O)c2ccc3c(c21)OCC31CCN(C(=O)C2CN(CC3CCN(c4ccc([C@@H]5c6ccc(O)cc6CC[C@@H]5c5ccccc5)cc4)CC3)C2)CC1 (some centres unmarked) ? Thanks!
[out] 53

[in] Query Degradation rate of ERα in MCF-7 cells (%) for COc1c(C(=O)N[C@H]2CCC(=O)NC2=O)ccc2c1OC[C@H]1CN(CC3CCC(OC4CCN(c5ccc([C@@H]6c7ccc(O)cc7CC[C@@H]6c6ccccc6)cc5)CC4)CC3)CCN21 (some centres unmarked)
[out] -1

[in] State, in one line, measured Degradation rate of ERα in MCF-7 cells (%) of O=C1CCC(Nc2ccc3c(c2)COC[C@H]2CN(CC4CCC(OC5CCN(c6ccc([C@@H]7c8ccc(O)cc8CC[C@@H]7c7ccccc7)cc6)CC5)CC4)CCN32)C(=O)N1 (single isomer, unassigned) [ER-P-50]
[out] 9

[in] Let me know recorded Degradation rate of ERα in MCF-7 cells (%) for COc1cc2c(cc1C(=O)N[C@H]1CCC(=O)NC1=O)N(C)C[C@H]1CN(CC3CCC(OC4CCN(c5ccc([C@@H]6c7ccc(O)cc7CC[C@@H]6c6ccccc6)cc5)CC4)CC3)CCN21 (some centres unmarked) , thanks.
[out] 23

[in] Read the entry Cn1c(=O)n(C2CCC(=O)NC2=O)c2ccc3c(c21)OCC31CCN(C2CC3(CCN(c4ccc([C@@H]5c6ccc(O)cc6CC[C@@H]5c5ccccc5)cc4)CC3)C2)CC1 (some centres unmarked) [ER-P-17] and write its reported Degradation rate of ERα in MCF-7 cells (%).
[out] 33

[in] Provide measured Degradation rate of ERα in MCF-7 cells (%) value, entry: C[C@@H]1Cc2cc(O)ccc2C(c2c(F)cc(N3CCC4(CC3)CC(N3CC5(CCC6(CC5)COc5c6ccc6c5CN(C5CCC(=O)NC5=O)C6=O)C3)C4)cc2F)N1CC(F)F (some centres unmarked)
[out] 63

[in] Give the reported Degradation rate of ERα in MCF-7 cells (%) for this molecule. O=C1CCC(Nc2ccc3c(c2)OC2(CC3)CN(C[C@H]3CC[C@@H](OC4CCN(c5ccc([C@@H]6c7ccc(O)cc7CC[C@@H]6c6ccccc6)cc5)CC4)CC3)C2)C(=O)N1 (some centres unmarked)
[out] -9

[in] Read the entry COc1cc2c(cc1C(=O)N[C@H]1CCC(=O)NC1=O)OCC[C@H]1CN(CC3CCC(OC4CCN(c5ccc([C@@H]6c7ccc(O)cc7CC[C@@H]6c6ccccc6)cc5)CC4)CC3)CCN21 (some centres unmarked) and write its reported Degradation rate of ERα in MCF-7 cells (%).
[out] 36

[in] Output Degradation rate of ERα in MCF-7 cells (%) of Cn1c(=O)n(C2CCC(=O)NC2=O)c2cc3c(cc21)C1(CCN(CC2CCC4(CC2)CN(c2ccc([C@@H]5c6ccc(O)cc6CC[C@@H]5c5ccccc5)cc2)C4)CC1)CO3 (some centres unmarked)
[out] 18

[in] Tell us which Degradation rate of ERα in MCF-7 cells (%) value is on record for Cn1c(=O)n(C2CCC(=O)NC2=O)c2ccc3c(c21)C1(CCN(C(=O)[C@H]2CC[C@H](CN4CCN(c5ccc([C@@H]6c7ccc(O)cc7CC[C@@H]6c6ccccc6)cc5)CC4)CC2)CC1)CO3 (some centres unmarked)
[out] 62

[in] Given the molecule Cn1c(=O)n(C2CCC(=O)NC2=O)c2ccc3c(c21)OCC31CCN(C2CCC3(CC2)CCN(c2ccc([C@@H]4c5ccc(O)cc5CC[C@@H]4c4ccccc4)cc2)CC3)CC1 (some centres unmarked) , write its reported Degradation rate of ERα in MCF-7 cells (%).
[out] 62

[in] Recall and state the measured Degradation rate of ERα in MCF-7 cells (%) for O=C1CC[C@H](NC(=O)c2ccc3c(c2F)OCC32CCN(C3CCC4(CC3)CN(c3ccc([C@@H]5c6ccc(O)cc6CC[C@@H]5c5ccccc5)cc3)C4)CC2)C(=O)N1 .
[out] -14

[in] Provide one value: measured Degradation rate of ERα in MCF-7 cells (%) of O=C1CCC(Nc2ccc3c(c2)OCC32CCN(C[C@H]3CC[C@@H](OC4CCN(c5ccc([C@@H]6c7ccc(O)cc7CC[C@@H]6c6ccccc6)cc5)CC4)CC3)CC2)C(=O)N1 (some centres unmarked)
[out] 71

[in] Read off the recorded Degradation rate of ERα in MCF-7 cells (%) for O=C1CCC(n2c(=O)n3c4c(cccc42)N(C[C@H]2CC[C@@H](OC4CCN(c5ccc([C@@H]6c7ccc(O)cc7CC[C@@H]6c6ccccc6)cc5)CC4)CC2)CC3)C(=O)N1 (some centres unmarked)
[out] 16

[in] Tell me its Degradation rate of ERα in MCF-7 cells (%) given O=C1CC[C@H](NC(=O)c2cc3c(cc2F)N2CCN(C[C@H]4CC[C@@H](OC5CCN(c6ccc([C@@H]7c8ccc(O)cc8CC[C@@H]7c7ccccc7)cc6)CC5)CC4)C[C@@H]2CO3)C(=O)N1 as the entry.
[out] 13

[in] Query Degradation rate of ERα in MCF-7 cells (%) for Cn1c(=O)n(C2CCC(=O)NC2=O)c2ccc3c(c21)OCC31CCN(C2CC3(CCN(c4ccc([C@@H]5c6ccc(O)cc6CC[C@@H]5c5ccccc5)cc4)CC3)C2)CC1 (some centres unmarked) [ER-P-15]
[out] 26

[in] Identify measured Degradation rate of ERα in MCF-7 cells (%) associated with Cn1c(=O)n(C2CCC(=O)NC2=O)c2ccc3c(c21)OCC31CCN(C2CCN(C(=O)C3CCN(c4ccc([C@@H]5c6ccc(O)cc6CC[C@@H]5c5ccccc5)cc4)CC3)CC2)CC1 (some centres unmarked)
[out] 85
